These measurements were taken from the METLIN SMRT retention time set (Domingo-Almenara et al. 2019).

# test summary: gradient 5% acetonitrile 3 min, to 50% in 2 min, to 85% in 15 min, held 3 min, 100 µL/min
# experimental parameters: column: Zorbax Extend-C18 2.1 x 50 mm; eluents: water / acetonitrile, 0.1% formic acid
reported property: RP-LC retention time (s)
Report only the number, with the unit s understood.

For the molecule CC1Cc2ccccc2N1C(=O)Cc1cc(-c2ccc(F)cc2)on1 (stereo unspecified) , give its measured RP-LC retention time value.
1000

For the molecule O=C(NC(c1ccccc1)c1nnc(N2CCOCC2)o1)c1ccc(Cl)cc1 (stereo unspecified) , give its measured RP-LC retention time value.
781

For the molecule Cc1ccc(S(=O)(=O)N2CCC(c3nc(C(=O)N(C)C)c(C)o3)CC2)cc1 , give its measured RP-LC retention time value.
818

For the molecule COc1ccccc1N1CCN(C(=O)C2CCCN(c3ncnc4c3nc3n4CCCCC3)C2)CC1 (stereo unspecified) , give its measured RP-LC retention time value.
766

For the molecule CCn1c(C)c(CCC(=O)NCC2CCCO2)c(=O)n2nc(-c3ccccc3)nc12 (stereo unspecified) , give its measured RP-LC retention time value.
691

For the molecule Cc1ccc(Oc2nccnc2N2CCCC(C(=O)Nc3ccc(Br)c(C)c3)C2)cc1 (stereo unspecified) , give its measured RP-LC retention time value.
1290

For the molecule NC1(Cc2ccc(Cl)cc2)CCN(c2ncnc3[nH]ccc23)CC1 , give its measured RP-LC retention time value.
602

For the molecule Cc1ccc(-c2cc(C(=O)N3CCC(NC(=O)c4cc(C5CC5)[nH]n4)CC3)[nH]n2)cc1C , give its measured RP-LC retention time value.
698

For the molecule CCN1c2ccccc2C(=O)NC12CCN(C(=O)c1cccc(F)c1)CC2 , give its measured RP-LC retention time value.
742

For the molecule C=Cc1ccc(CN2CCCN(c3ncccc3-c3nc(CC)no3)CC2)cc1 , give its measured RP-LC retention time value.
722

For the molecule COCCn1c(-c2cccc(OC)c2)cnc1NC(=O)Nc1cccc(Cl)c1 , give its measured RP-LC retention time value.
714

For the molecule COCCCn1c(=O)c2ccccc2n(Cc2nc(-c3ccccc3OC)no2)c1=O , give its measured RP-LC retention time value.
874

For the molecule CCc1noc(-c2cccn2Cc2ccc(OC)c(F)c2)n1 , give its measured RP-LC retention time value.
1100

For the molecule Clc1cccc(-c2ccc(CNCCCn3ccnc3)o2)c1 , give its measured RP-LC retention time value.
588

For the molecule CCc1nc2cc(N3CCCC(C(=O)N4CCC5(CC4)OCCO5)C3)cnc2nc1CC (stereo unspecified) , give its measured RP-LC retention time value.
769

For the molecule CN1C(=O)C(C)(C)COc2cc(NC(=O)CCSc3ccccc3)ccc21 , give its measured RP-LC retention time value.
882

For the molecule O=C(NCC1CCN(Cc2ccccc2)CC1)C(=O)Nc1ccc(F)cc1F , give its measured RP-LC retention time value.
573

For the molecule Cc1cccc(Nc2nc(CC(=O)N3CCC(C(N)=O)CC3)cs2)n1 , give its measured RP-LC retention time value.
539

For the molecule O=C(CCSCCc1ccccn1)Nc1c(F)cc(F)cc1Br , give its measured RP-LC retention time value.
627

For the molecule O=C(NC1CCN(Cc2ccccc2)CC1)c1ccc2c(=O)n3c(nc2c1)CCCC3 , give its measured RP-LC retention time value.
579

For the molecule COc1ccc(N2CC(c3nnc(NC(=O)c4ccc(Cl)cc4)o3)CC2=O)cc1 (stereo unspecified) , give its measured RP-LC retention time value.
835

For the molecule CCC(=O)N1CCc2cc(N3CC(C(=O)NCc4ccccc4)CC3=O)ccc21 (stereo unspecified) , give its measured RP-LC retention time value.
699

For the molecule Cc1cccc(C2(O)C(=O)N(Cc3nc(-c4ccccc4)oc3C)c3ccccc32)c1 (stereo unspecified) , give its measured RP-LC retention time value.
1120

For the molecule CCOC(=O)C1CCN(c2ncnc3c2cnn3-c2ccc(OC)cc2)CC1 , give its measured RP-LC retention time value.
952

For the molecule O=c1ccc(N2CCCN(S(=O)(=O)c3ccc(Cl)cc3)CC2)nn1-c1ccccc1 , give its measured RP-LC retention time value.
868

For the molecule CC(C)CCC(=O)N1CCC(N2C[C@H](O)C[C@H]2C(N)=O)CC1 , give its measured RP-LC retention time value.
571
